Test: Growth inhibition of human HeLa cells after 48 hrs by SRB assay
Format: functional
Details: read-out: pGI50 (converted)
Measured GI50 of individual entries
Provide only the numeric value, understood in µM.

Example results:
compound: CC(=O)O[C@H]1C(=O)[C@@]2(C)[C@H]([C@H](OC(=O)c3ccccc3)[C@]3(O)C[C@H](OC(=O)[C@H](O)[C@@H](NC(=O)c4ccccc4)c4ccccc4)C(C)=C1C3(C)C)[C@]1(OC(C)=O)CO[C@@H]1C[C@@H]2O [PACLITAXEL]
GI50, µM: 0.0389
--
compound: COc1ccccc1N1CCN(C(=O)CCN2C(=O)CSc3ccccc32)CC1
GI50, µM: 12
--
compound: O=C(CCN1C(=O)CSc2ccccc21)N1CCN(c2ccc(F)cc2)CC1
GI50, µM: 5.37
--
compound: COc1cccc2c1C(=O)c1c(O)c3c(c(O)c1C2=O)C[C@@](O)(C(=O)CO)C[C@@H]3O[C@H]1C[C@H](N)[C@H](O)[C@H](C)O1 [DOXORUBICIN]
GI50, µM: 0.0832
--
compound: COc1ccccc1N1CCN(CCCNC(=O)CCN2C(=O)CSc3ccccc32)CC1
GI50, µM: 0.977
--
compound: O=C(CCN1C(=O)CSc2ccccc21)N1CCN(c2ccccc2)CC1
GI50, µM: 41.7

The record that follows has no GI50 shown yet.
Request: Sample O=C(CCN1C(=O)CSc2ccccc21)NCCCN1CCN(c2ccc(C(F)(F)F)cc2)CC1 — what was its GI50?
Result: 5.75

---

Experiment: Growth inhibition of human HeLa cells after 48 hrs by SRB assay
Assay type: functional
Settings: read-out: pGI50 (converted)
With a cut-off of 20 µM, any GI50 strictly below it is called Yes; any GI50 meeting it or above is called No.

structure: O=C(CCN1C(=O)CSc2ccccc21)N1CCN(c2ccc(C(F)(F)F)cc2)CC1
qualitative label: Yes
//
structure: O=C(CCN1C(=O)CSc2ccccc21)N1CCN(c2ccccc2F)CC1
qualitative label: No
//
structure: O=C(CCN1C(=O)CSc2ccccc21)NCCCN1CCN(c2ccccc2F)CC1
qualitative label: Yes
//
structure: O=C(CCN1C(=O)CSc2ccccc21)NCCCN1CCN(c2ccccc2)CC1
qualitative label: Yes

Request: Decide: GI50 of O=C(CCN1C(=O)CSc2ccccc21)N1CCC(Cc2ccccc2)CC1 strictly below 20 µM?
Result: Yes

---

Assay: Growth inhibition of human MiaPaCa cells after 48 hrs by SRB assay
Assay type: functional
Conditions: MIA PaCa-2, 48 h
Measured GI50 of individual entries

Request: Sample O=C(CCN1C(=O)CSc2ccccc21)N1CCC(Cc2ccccc2)CC1 — what was its GI50?
Result: 56.8 µM

Request: Sample O=C(CCN1C(=O)CSc2ccccc21)N1CCN(c2ccc(C(F)(F)F)cc2)CC1 — what was its GI50?
Result: > 100 µM

Request: Sample O=C(CCN1C(=O)CSc2ccccc21)NCCCN1CCN(c2ccccc2F)CC1 — what was its GI50?
Result: > 100 µM

Request: Sample O=C(CCN1C(=O)CSc2ccccc21)NCCCN1CCN(c2ccccc2)CC1 — what was its GI50?
Result: > 100 µM

Request: Sample O=C(CCN1C(=O)CSc2ccccc21)NCCCN1CCC(Cc2ccccc2)CC1 — what was its GI50?
Result: > 100 µM

Request: Sample O=C(CCN1C(=O)CSc2ccccc21)N1CCSCC1 — what was its GI50?
Result: > 100 µM

Request: Sample COc1ccccc1N1CCN(CCCNC(=O)CCN2C(=O)CSc3ccccc32)CC1 — what was its GI50?
Result: 59.2 µM

Request: Sample O=C(CCN1C(=O)CSc2ccccc21)NCCCN1CCN(c2ccc(C(F)(F)F)cc2)CC1 — what was its GI50?
Result: > 100 µM

Request: Sample O=C(CCN1C(=O)CSc2ccccc21)N1CCN(c2ccc(F)cc2)CC1 — what was its GI50?
Result: > 100 µM

Request: Sample O=C(CCN1C(=O)CSc2ccccc21)N1CCN(c2ccc([N+](=O)[O-])cc2)CC1 — what was its GI50?
Result: 68.1 µM

Request: Sample O=C(CCN1C(=O)CSc2ccccc21)N1CCN(c2ccccc2)CC1 — what was its GI50?
Result: > 100 µM

Attribution: ChEMBL document CHEMBL3871304
